Attribution: ChEMBL document CHEMBL1153216

# system_tested: UniProt P11229
# test_description: Allosteric modulation of human muscarinic M1 receptor expressed in CHO cells assessed as effect on acetylcholine-induced calcium mobilization by FLIPR assay
# Assay type: functional, cell-based
Use 2000 nM as the dividing line for IP, with the line itself on the label 1 side and lower values as label 0.

These recorded examples may help you get a feel for the data.
O=C(O)c1cn(Cc2ccc(-c3cn[nH]c3)cc2F)c2ccccc2c1=O    label 0
O=C(O)c1cn(Cc2ccc(-c3ccccc3)cc2Cl)c2ccccc2c1=O    label 0
N#Cc1ccccc1-c1ccc(Cn2cc(C(=O)O)c(=O)c3cccc(F)c32)cc1    label 0

For this compound, is measured IP 2000 nM or higher? O=C(O)c1cn(Cc2ccccc2C(F)(F)F)c2c(F)cccc2c1=O label 1

For this compound, is measured IP 2000 nM or higher? O=C(O)c1cn(Cc2ccc(OC(F)(F)F)cc2)c2c(F)cccc2c1=O label 1

For this compound, is measured IP 2000 nM or higher? O=C(O)c1cn(Cc2ccc(OC(F)(F)F)cc2)c2c(F)ccc(F)c2c1=O label 0

For this compound, is measured IP 2000 nM or higher? O=C(O)c1cn(Cc2ccc(-c3ccccc3)cc2)c2cccc(F)c2c1=O label 0

For this compound, is measured IP 2000 nM or higher? O=C(O)c1cn(Cc2ccc(-c3ccncc3)cc2)c2c(F)cccc2c1=O label 0

For this compound, is measured IP 2000 nM or higher? O=C(O)c1cn(Cc2c(F)cccc2F)c2c(F)ccc(F)c2c1=O label 0

For this compound, is measured IP 2000 nM or higher? COc1cccc(Cn2cc(C(=O)O)c(=O)c3c(F)ccc(F)c32)c1 label 1

---

# system_tested: Muscarinic acetylcholine receptor M1 (Homo sapiens)
# Sequence (whole entry): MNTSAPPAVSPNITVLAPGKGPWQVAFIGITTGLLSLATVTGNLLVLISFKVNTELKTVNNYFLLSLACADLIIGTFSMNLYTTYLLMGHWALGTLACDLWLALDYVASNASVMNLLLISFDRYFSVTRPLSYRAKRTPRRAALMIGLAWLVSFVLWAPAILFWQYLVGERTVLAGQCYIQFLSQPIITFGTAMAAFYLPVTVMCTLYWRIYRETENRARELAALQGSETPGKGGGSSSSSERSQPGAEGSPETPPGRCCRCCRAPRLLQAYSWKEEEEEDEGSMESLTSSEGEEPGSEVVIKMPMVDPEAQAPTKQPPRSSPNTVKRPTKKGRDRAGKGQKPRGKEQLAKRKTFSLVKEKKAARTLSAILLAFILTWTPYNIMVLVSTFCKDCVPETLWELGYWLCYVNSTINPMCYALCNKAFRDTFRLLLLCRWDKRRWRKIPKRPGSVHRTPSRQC
# test_description: Allosteric modulation of human muscarinic M1 receptor expressed in CHO cells assessed as effect on acetylcholine-induced calcium mobilization by FLIPR assay
# Type: functional, cell-based
Would you kindly list log10 of IP for each of these compounds?
Values are log10 of IP in nM.

The following compounds have reported results that may help.
O=C(O)c1cn(Cc2ccc(C(F)(F)F)cc2)c2c(F)cccc2c1=O    2.99
O=C(O)c1cn(Cc2ccccc2)c2c(F)cccc2c1=O    3.60
Nc1cccc(-c2ccc(Cn3cc(C(=O)O)c(=O)c4cccc(F)c43)cc2)c1    2.32
N#Cc1ccccc1-c1ccc(Cn2cc(C(=O)O)c(=O)c3c(F)cccc32)cc1    2.60
O=C(O)c1cn(Cc2ccc(C3CC3)cc2)c2cccc(F)c2c1=O    2.92
CN(C)c1cc(-c2ccc(Cn3cc(C(=O)O)c(=O)c4cccc(F)c43)cc2)ccn1    1.65

Quick one: give me log10 of IP for each item below, same order please.
1. NC(=O)c1cccc(Cn2cc(C(=O)O)c(=O)c3ccccc32)c1
2. O=C(O)c1cn(Cc2cccc(OC(F)(F)F)c2)c2c(F)ccc(F)c2c1=O
3. O=C(O)c1cn(C2(c3ccccc3)CC2)c2ccccc2c1=O
4. O=C(O)c1cn(CCc2ccccc2)c2c(F)cccc2c1=O
5. COc1ncc(-c2ccc(Cn3cc(C(=O)O)c(=O)c4ccccc43)c(F)c2)cn1
6. O=C(O)c1cn(Cc2ccc(-c3cn[nH]c3)cc2F)c2cccc(F)c2c1=O
7. Nc1ccc(-c2ccc(Cn3cc(C(=O)O)c(=O)c4cccc(F)c43)cc2)cn1

1. 3.63
2. 3.51
3. 4.11
4. 4.38
5. 2.71
6. 1.61
7. 2.11

---

Would you kindly list log10(IP) for each of these compounds?
# system_tested: Muscarinic acetylcholine receptor M1 (Homo sapiens) (UniProt P11229)
# Sequence (whole entry): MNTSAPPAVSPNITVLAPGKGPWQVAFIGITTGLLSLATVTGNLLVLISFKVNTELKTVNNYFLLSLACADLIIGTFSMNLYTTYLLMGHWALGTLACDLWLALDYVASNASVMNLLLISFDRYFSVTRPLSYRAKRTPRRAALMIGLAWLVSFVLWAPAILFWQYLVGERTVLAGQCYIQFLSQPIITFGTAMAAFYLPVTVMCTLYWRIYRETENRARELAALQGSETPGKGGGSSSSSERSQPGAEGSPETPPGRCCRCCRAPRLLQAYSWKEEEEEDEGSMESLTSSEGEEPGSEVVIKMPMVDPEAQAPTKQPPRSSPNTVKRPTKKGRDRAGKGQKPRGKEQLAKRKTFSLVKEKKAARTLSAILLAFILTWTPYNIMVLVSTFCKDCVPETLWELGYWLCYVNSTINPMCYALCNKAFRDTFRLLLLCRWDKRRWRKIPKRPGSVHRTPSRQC
# test_description: Allosteric modulation of human muscarinic M1 receptor expressed in CHO cells assessed as effect on acetylcholine-induced calcium mobilization by FLIPR assay
# Assay type: functional, cell-based
Values are log10 of IP in nM.

The following compounds have reported results that may help.
O=C(O)c1cn(Cc2ccc(-c3cccc(CO)n3)cc2)c2c(F)cccc2c1=O    2.40
O=C(O)c1cn(Cc2ccc(-c3cccnc3)cc2)c2cccc(F)c2c1=O    1.79
O=C(O)c1cn(Cc2ccccc2)c2ccccc2c1=O    3.23
CN(C)Cc1cccc(-c2ccc(Cn3cc(C(=O)O)c(=O)c4cccc(F)c43)cc2)c1    2.34
O=C(O)c1cn(Cc2ccc(C3CC3)cc2)c2c(F)cccc2c1=O    3.08
COc1cccc(Cn2cc(C(=O)O)c(=O)c3c(F)cccc32)c1    3.32
COc1cccc(Cn2cc(C(=O)O)c(=O)c3ccccc32)c1    3.45
O=C(O)c1cn(Cc2ccc(OC(F)(F)F)cc2)c2cccc(F)c2c1=O    3.45
O=C(NCCO)c1cccc(-c2ccc(Cn3cc(C(=O)O)c(=O)c4cccc(F)c43)cc2)c1    2.00
O=C(O)c1cn(Cc2ccc(-c3cccc4cccnc34)cc2)c2cccc(F)c2c1=O    2.28

Quick one: give me log10(IP) for each item below, same order please.
1. O=C(O)c1cn(Cc2cccc(C(F)(F)F)c2)c2c(F)cccc2c1=O
2. COc1cccc(Cn2cc(C(=O)O)c(=O)c3cccc(F)c32)c1
3. CNc1ccc(-c2ccc(Cn3cc(C(=O)O)c(=O)c4cccc(F)c43)cc2)cn1
4. O=C(O)c1cn(Cc2c(F)cccc2F)c2c(F)cccc2c1=O

[3.43, 3.43, 1.68, 3.00]

Quick one: give me log10(IP) for each item below, same order please.
1. O=C(O)c1cn(Cc2ccc(-c3ccccc3)cc2)c2c(F)cccc2c1=O
2. O=C(NC1CC1)c1ccc(-c2ccc(Cn3cc(C(=O)O)c(=O)c4cccc(F)c43)cc2)cc1
3. O=C(O)c1cn(Cc2cccc(OC(F)(F)F)c2)c2ccccc2c1=O
4. O=C(O)c1cn(Cc2ccccc2C(F)(F)F)c2c(F)ccc(F)c2c1=O
5. O=C(O)c1cn(Cc2ccc(OC(F)(F)F)cc2)c2ccccc2c1=O

1: 2.58; 2: 2.04; 3: 3.61; 4: 3.36; 5: 3.26

---

# system_tested: Muscarinic acetylcholine receptor M1 (Homo sapiens)
# Sequence (whole entry): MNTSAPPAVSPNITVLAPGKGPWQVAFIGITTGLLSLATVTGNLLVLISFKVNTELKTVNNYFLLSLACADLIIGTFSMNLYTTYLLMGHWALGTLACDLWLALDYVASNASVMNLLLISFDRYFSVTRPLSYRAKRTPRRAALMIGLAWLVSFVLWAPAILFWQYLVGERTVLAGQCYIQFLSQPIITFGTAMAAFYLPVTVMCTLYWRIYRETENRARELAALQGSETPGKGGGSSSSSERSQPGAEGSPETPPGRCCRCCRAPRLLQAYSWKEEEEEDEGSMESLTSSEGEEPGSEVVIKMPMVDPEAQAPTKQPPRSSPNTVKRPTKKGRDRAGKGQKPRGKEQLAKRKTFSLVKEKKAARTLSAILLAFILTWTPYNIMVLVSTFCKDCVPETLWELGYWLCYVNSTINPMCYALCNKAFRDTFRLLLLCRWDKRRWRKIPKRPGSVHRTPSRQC
# test_description: Allosteric modulation of human muscarinic M1 receptor expressed in CHO cells assessed as effect on acetylcholine-induced calcium mobilization by FLIPR assay
# Assay type: functional, cell-based
Would you kindly list IP for each of these compounds?
Give bare numbers, in nM.

The following compounds have reported results that may help.
O=C(O)c1cn(Cc2ccccc2C(F)(F)F)c2ccccc2c1=O    4300
O=C(O)c1cn(Cc2c(F)cccc2F)c2cccc(F)c2c1=O    1300
O=C(O)c1cn(Cc2ccc(C(F)(F)F)cc2)c2cccc(F)c2c1=O    1500
COc1ccc(Cn2cc(C(=O)O)c(=O)c3cccc(F)c32)cc1    1100
O=C(O)c1cn(Cc2ccc(Br)cc2F)c2c(F)ccc(F)c2c1=O    860

Quick one: give me IP for each item below, same order please.
1. Cn1cc(-c2ccc(Cn3cc(C(=O)O)c(=O)c4ccccc43)c(F)c2)cn1
2. O=C(O)c1cn(C2(c3ccccc3)CC2)c2c(F)cccc2c1=O
3. O=C(O)c1cn(Cc2ccc(-c3ccccc3)cc2F)c2ccccc2c1=O
4. COc1ccc(-c2ccc(Cn3cc(C(=O)O)c(=O)c4cccc(F)c43)cc2)cn1
5. CN(C)c1cccc(-c2ccc(Cn3cc(C(=O)O)c(=O)c4cccc(F)c43)cc2)c1
6. CS(=O)(=O)c1ccc(Cn2cc(C(=O)O)c(=O)c3cccc(F)c32)cc1

37
22000
50
63
94
13000

Quick one: give me IP for each item below, same order please.
1. O=C(O)c1cn(Cc2cccc(C(F)(F)F)c2)c2c(F)ccc(F)c2c1=O
2. O=C(O)c1cn(Cc2ccc(-c3cncnc3)cc2)c2c(F)cccc2c1=O
3. NC(=O)c1cccc(Cn2cc(C(=O)O)c(=O)c3cccc(F)c32)c1
4. O=C(O)c1cn(Cc2ccc(Br)cc2F)c2c(F)cccc2c1=O
5. O=C(O)c1cn(Cc2cccc(OC(F)(F)F)c2)c2c(F)cccc2c1=O
6. O=C(O)c1cn(Cc2ccc(-c3cccc4[nH]ccc34)cc2)c2c(F)cccc2c1=O
7. COc1ccc(Cn2cc(C(=O)O)c(=O)c3c(F)cccc32)cc1

1. 1600
2. 830
3. 3400
4. 1200
5. 3600
6. 76
7. 2000

Quick one: give me IP for each item below, same order please.
1. O=C(O)c1cn(Cc2cccc(OC(F)(F)F)c2)c2cccc(F)c2c1=O
2. O=C(O)c1cn(Cc2ccc(-c3ccccc3)cc2)c2c(F)ccc(F)c2c1=O
3. O=C(O)c1cn(Cc2ccc(C(F)(F)F)cc2)c2c(F)ccc(F)c2c1=O
4. CS(=O)(=O)c1ccc(Cn2cc(C(=O)O)c(=O)c3ccccc32)cc1
5. O=C(O)c1cn(Cc2cccc(C(F)(F)F)c2)c2ccccc2c1=O
6. CN1CCN(c2ccc(-c3ccc(Cn4cc(C(=O)O)c(=O)c5cccc(F)c54)cc3)cn2)CC1
7. O=C(O)c1cn(Cc2ccc(Br)cc2F)c2cccc(F)c2c1=O
8. O=C(O)c1cn(Cc2ccccc2)c2c(F)ccc(F)c2c1=O

1: 5900; 2: 270; 3: 760; 4: 18000; 5: 7200; 6: 51; 7: 1100; 8: 3000

Quick one: give me IP for each item below, same order please.
1. O=C(O)c1cn(Cc2ccc(-c3ccccc3)cc2)c2ccccc2c1=O
2. CS(=O)(=O)c1ccc(Cn2cc(C(=O)O)c(=O)c3c(F)ccc(F)c32)cc1

1: 210; 2: 16000
